Attribute: CC15
Tested on: Huh-luc/neo-ET cells
Assay: Cell cytotoxic test (MTT) on Huh-luc/neo-ET cells
Format: cell-based
Conditions: concentration for 15% cell kill, two-day culture
Method: Cell Cytotoxic Test on Huh-luc/noe-ET Cells Huh-luc/neo-ET cells with a concentration of 2.5×10^4 cells/100 μl/well were seeded into a 96 well culture plate (Corning Incorporation COSTAR, 3599) and placed into a cell incubator for culturing. […] After a two-day culture, the medium was removed and each well containing cells was washed by 100 μl of 1×PBS (1 mM KH2PO4, 10 mM Na2HPO4, 137 mM NaCl, 2.7 mM KCl) twice. Precipitates were recorded and PBS was removed. […]
Expressed in µM, but write only the number.

For C=CC(C)(O)CCCC(C)C(=O)OC1C(C)OC(OC(C)(C=C)CC/C=C(\CO)C(=O)OC2CC3(C(=O)OC4OCC(OC5OC(CO)C(O)C(OC6OC(CO)C(OC7OC(C)C(O)C(O)C7O)C(O)C6O)C5O)C(O)C4O)CCC4(C)C(=CCC5C6(C)CCC(OC7OC(CO)C(OC8OC(CO)C(O)C(OC9OCC(O)C(O)C9O)C8O)C(O)C7O)C(C)(C)C6CCC54C)C3CC2(C)C)C(O)C1O (centres unmarked) , what is its reported CC15?
7.96

New cases:
Fill in: CC15 of C[C@@H]1OC(O[C@H]2C(OC(=O)[C@]34CCC(C)(C)C[C@H]3C3=CC[C@@H]5[C@@]6(C)C[C@H](O)[C@@H]7OC8O[C@H](CO)[C@@H](O)[C@H](O)[C@H]8OC8OC[C@H](O)[C@H](O)[C@H]8OC(=O)CC(C)(O)CC(=O)OC[C@H]7[C@@H]6CC[C@@]5(C)[C@]3(C)CC4)OC[C@H](O)[C@@H]2O)[C@H](O)[C@H](OC2OC[C@@H](O)[C@H](O)[C@H]2O)[C@H]1O (some centres unmarked) is ___
2.9
